# TEST_TARGET: FGFR4 (h) (Homo sapiens, UniProt P22455)
pIC50: −log10 of the molar value.
QUANTITY_MEASURED: pIC50

*Q* Form field: reported pIC50 of Cc1cc(Oc2cc(NC(=O)C3CC3)ncn2)ccc1NC(=O)Nc1ccc(Cl)c(C(F)(F)F)c1
*A* < 5.00

###

# TEST_TARGET: Pim-1 (h) (Homo sapiens, UniProt P11309)
# Sequence (P11309 whole entry): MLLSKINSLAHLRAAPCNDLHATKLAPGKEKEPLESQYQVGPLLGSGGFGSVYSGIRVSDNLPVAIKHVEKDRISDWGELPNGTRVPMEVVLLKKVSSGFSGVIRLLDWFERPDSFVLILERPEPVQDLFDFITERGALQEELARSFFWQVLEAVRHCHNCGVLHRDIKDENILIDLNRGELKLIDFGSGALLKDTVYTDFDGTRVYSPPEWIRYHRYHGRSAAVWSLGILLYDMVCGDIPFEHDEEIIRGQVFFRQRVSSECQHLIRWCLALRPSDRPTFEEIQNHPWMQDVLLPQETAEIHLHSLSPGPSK
QUANTITY_MEASURED: IC50

*Q* Form field: reported IC50 of Cc1cc(Oc2cc(NC(=O)C3CC3)ncn2)ccc1NC(=O)Nc1ccc(Cl)c(C(F)(F)F)c1 [CBT-102]
*A* > 10 µM

###

# TEST_TARGET: Lck (h) (Homo sapiens)
QUANTITY_MEASURED: pIC50
Give bare numbers, as −log10 of the molar value.

*Q* Form field: reported pIC50 of Cc1cc(Oc2cc(NC(=O)C3CC3)ncn2)ccc1NC(=O)Nc1ccc(Cl)c(C(F)(F)F)c1 [CBT-102]
*A* 5.87

###

# TEST_TARGET: TAK1 (h) (Homo sapiens, UniProt O43318)
QUANTITY_MEASURED: IC50 (nM)
Numbers only, in nM.

*Q* Form field: reported IC50 of Cc1cc(Oc2cc(NC(=O)C3CC3)ncn2)ccc1NC(=O)Nc1ccc(Cl)c(C(F)(F)F)c1
*A* 481

###

# TEST_TARGET: CDK2/cyclinE (h) (Homo sapiens)
# EXPERIMENTAL_PROTOCOL: Kinase IC50 (Eurofins KinaseProfiler)
QUANTITY_MEASURED: IC50

*Q* Form field: reported IC50 of Cc1cc(Oc2cc(NC(=O)C3CC3)ncn2)ccc1NC(=O)Nc1ccc(Cl)c(C(F)(F)F)c1
*A* > 10 µM

###

# TEST_TARGET: Flt1 (h) (Homo sapiens, UniProt P17948)
# Sequence (P17948 27-1338): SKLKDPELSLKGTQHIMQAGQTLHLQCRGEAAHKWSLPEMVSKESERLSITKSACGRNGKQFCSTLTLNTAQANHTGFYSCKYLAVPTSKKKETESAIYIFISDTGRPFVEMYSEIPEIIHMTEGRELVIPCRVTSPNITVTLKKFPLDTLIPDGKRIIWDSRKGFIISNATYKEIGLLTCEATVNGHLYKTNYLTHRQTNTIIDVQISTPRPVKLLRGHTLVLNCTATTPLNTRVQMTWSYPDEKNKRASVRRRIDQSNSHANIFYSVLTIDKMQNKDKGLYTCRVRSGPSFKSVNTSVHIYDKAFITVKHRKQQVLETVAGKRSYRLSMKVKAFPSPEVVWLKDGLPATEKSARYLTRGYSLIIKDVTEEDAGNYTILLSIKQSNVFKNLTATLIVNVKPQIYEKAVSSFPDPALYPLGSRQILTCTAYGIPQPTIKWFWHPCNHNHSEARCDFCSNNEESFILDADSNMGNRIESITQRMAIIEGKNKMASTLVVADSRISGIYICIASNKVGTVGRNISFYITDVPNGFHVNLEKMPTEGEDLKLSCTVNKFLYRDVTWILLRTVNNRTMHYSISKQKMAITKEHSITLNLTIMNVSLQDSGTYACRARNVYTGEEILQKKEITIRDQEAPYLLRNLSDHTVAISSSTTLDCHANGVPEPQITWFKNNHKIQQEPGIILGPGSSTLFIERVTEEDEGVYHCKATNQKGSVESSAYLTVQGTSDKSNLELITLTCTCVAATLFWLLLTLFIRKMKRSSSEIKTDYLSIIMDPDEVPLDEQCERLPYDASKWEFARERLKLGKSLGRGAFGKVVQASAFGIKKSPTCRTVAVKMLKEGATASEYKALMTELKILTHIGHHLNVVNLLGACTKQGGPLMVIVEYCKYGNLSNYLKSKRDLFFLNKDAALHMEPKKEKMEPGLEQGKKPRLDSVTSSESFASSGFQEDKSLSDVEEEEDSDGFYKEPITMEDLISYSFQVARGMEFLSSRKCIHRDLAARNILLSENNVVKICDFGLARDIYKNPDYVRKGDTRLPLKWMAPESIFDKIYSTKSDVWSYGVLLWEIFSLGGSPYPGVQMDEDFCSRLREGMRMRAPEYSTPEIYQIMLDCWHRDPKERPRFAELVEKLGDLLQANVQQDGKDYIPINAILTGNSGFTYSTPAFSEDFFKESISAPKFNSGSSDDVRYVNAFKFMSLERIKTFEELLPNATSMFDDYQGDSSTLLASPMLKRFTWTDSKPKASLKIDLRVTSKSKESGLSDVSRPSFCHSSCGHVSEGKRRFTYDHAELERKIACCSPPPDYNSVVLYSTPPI
QUANTITY_MEASURED: pIC50
One number for each entry, as −log10 of the molar value.

*Q* Form field: reported pIC50 of Cc1cc(Oc2cc(NC(=O)C3CC3)ncn2)ccc1NC(=O)Nc1ccc(Cl)c(C(F)(F)F)c1 [CBT-102]
*A* 7.68

###

# TEST_TARGET: Flt3 (h) (Homo sapiens, UniProt P36888)
# Sequence (P36888 27-993): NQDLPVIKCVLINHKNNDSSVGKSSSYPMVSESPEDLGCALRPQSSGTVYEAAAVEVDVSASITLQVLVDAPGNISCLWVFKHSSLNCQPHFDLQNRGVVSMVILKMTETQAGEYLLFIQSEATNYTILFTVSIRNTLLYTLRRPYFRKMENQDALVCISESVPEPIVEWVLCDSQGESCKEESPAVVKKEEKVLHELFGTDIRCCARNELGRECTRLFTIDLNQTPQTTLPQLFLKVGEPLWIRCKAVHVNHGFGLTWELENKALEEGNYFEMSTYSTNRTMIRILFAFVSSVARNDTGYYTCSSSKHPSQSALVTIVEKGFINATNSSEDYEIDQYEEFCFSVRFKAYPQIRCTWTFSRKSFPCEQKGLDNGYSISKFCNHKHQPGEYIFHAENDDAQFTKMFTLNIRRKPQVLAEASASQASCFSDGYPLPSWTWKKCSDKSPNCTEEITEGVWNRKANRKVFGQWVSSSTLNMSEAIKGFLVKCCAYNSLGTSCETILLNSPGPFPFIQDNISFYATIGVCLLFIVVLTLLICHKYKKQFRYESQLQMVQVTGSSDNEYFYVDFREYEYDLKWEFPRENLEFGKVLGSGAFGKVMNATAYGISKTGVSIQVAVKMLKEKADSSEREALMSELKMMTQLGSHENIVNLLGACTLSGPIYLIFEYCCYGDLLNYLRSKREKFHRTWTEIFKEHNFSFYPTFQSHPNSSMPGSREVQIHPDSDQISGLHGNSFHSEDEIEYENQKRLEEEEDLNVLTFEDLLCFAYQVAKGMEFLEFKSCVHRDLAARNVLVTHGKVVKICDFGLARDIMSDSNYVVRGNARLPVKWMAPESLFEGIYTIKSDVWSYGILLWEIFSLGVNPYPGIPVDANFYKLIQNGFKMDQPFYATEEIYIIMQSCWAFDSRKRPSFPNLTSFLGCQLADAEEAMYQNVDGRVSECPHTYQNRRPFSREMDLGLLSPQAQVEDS
QUANTITY_MEASURED: IC50 (nM)
Numbers only, in nM.

*Q* Test system Flt3 (h) (Homo sapiens, UniProt P36888); read-out IC50; what value for Cc1cc(Oc2cc(NC(=O)C3CC3)ncn2)ccc1NC(=O)Nc1ccc(Cl)c(C(F)(F)F)c1 ?
*A* 1090

###

# TEST_TARGET: FAK (h) (Homo sapiens, UniProt Q05397)
pIC50: −log10 of the molar value.
QUANTITY_MEASURED: pIC50

*Q* Form field: reported pIC50 of Cc1cc(Oc2cc(NC(=O)C3CC3)ncn2)ccc1NC(=O)Nc1ccc(Cl)c(C(F)(F)F)c1
*A* < 5.00

###

# TEST_TARGET: TYK2 (h) (Homo sapiens, UniProt P29597)
QUANTITY_MEASURED: IC50

*Q* Form field: reported IC50 of Cc1cc(Oc2cc(NC(=O)C3CC3)ncn2)ccc1NC(=O)Nc1ccc(Cl)c(C(F)(F)F)c1
*A* > 10 µM

###

# TEST_TARGET: RIPK2 (h) (Homo sapiens)
QUANTITY_MEASURED: IC50

*Q* Form field: reported IC50 of Cc1cc(Oc2cc(NC(=O)C3CC3)ncn2)ccc1NC(=O)Nc1ccc(Cl)c(C(F)(F)F)c1
*A* 107 nM

###

# TEST_TARGET: ZAK (h) (Homo sapiens, UniProt Q9NYL2)
QUANTITY_MEASURED: pIC50
Numbers only, as −log10 of the molar value.

*Q* Form field: reported pIC50 of Cc1cc(Oc2cc(NC(=O)C3CC3)ncn2)ccc1NC(=O)Nc1ccc(Cl)c(C(F)(F)F)c1 [CBT-102]
*A* 7.59

###

# TEST_TARGET: Flt4 (h) (Homo sapiens)
# Sequence (P35916 25-1363): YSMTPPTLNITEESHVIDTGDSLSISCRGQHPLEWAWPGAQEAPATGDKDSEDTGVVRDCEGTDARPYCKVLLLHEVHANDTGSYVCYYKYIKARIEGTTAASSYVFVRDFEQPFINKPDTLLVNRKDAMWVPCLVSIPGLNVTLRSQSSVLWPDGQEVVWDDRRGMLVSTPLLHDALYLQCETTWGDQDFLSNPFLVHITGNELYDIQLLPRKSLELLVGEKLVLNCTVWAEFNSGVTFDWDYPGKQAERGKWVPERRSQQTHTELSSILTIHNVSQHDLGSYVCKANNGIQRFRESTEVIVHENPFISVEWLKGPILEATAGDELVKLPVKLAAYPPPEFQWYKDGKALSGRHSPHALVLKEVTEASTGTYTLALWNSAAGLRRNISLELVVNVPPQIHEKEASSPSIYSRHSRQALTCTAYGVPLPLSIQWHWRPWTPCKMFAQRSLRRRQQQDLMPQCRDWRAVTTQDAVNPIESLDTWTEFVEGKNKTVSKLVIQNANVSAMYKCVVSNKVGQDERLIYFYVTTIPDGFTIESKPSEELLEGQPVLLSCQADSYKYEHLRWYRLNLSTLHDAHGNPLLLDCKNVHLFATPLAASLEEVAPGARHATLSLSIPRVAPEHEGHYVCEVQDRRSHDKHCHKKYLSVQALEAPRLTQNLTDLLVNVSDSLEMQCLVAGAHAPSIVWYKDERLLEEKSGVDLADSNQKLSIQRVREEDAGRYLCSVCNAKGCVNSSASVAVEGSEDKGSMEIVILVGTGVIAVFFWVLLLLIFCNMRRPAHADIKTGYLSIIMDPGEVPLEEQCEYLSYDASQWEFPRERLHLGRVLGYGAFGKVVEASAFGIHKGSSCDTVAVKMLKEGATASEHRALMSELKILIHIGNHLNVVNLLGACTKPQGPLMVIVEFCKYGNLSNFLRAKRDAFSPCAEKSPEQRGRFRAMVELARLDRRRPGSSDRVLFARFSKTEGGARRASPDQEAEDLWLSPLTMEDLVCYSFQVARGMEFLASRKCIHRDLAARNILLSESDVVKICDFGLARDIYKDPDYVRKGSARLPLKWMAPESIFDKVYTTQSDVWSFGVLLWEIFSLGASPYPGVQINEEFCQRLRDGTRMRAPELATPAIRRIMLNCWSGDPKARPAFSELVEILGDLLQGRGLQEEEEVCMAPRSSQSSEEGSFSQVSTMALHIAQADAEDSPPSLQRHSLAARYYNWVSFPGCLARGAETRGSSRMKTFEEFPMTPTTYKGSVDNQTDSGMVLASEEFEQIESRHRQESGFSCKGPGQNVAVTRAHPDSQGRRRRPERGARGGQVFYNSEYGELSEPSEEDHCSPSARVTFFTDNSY
QUANTITY_MEASURED: IC50 (nM)
Give bare numbers, in nM.

*Q* Form field: reported IC50 of Cc1cc(Oc2cc(NC(=O)C3CC3)ncn2)ccc1NC(=O)Nc1ccc(Cl)c(C(F)(F)F)c1
*A* 8

###

# TEST_TARGET: Abl (h) (Homo sapiens)
QUANTITY_MEASURED: IC50 (µM)
Give bare numbers, in µM.

*Q* Form field: reported IC50 of Cc1cc(Oc2cc(NC(=O)C3CC3)ncn2)ccc1NC(=O)Nc1ccc(Cl)c(C(F)(F)F)c1
*A* 1.83

###

# TEST_TARGET: UniProt O94804
# Sequence (O94804 whole entry): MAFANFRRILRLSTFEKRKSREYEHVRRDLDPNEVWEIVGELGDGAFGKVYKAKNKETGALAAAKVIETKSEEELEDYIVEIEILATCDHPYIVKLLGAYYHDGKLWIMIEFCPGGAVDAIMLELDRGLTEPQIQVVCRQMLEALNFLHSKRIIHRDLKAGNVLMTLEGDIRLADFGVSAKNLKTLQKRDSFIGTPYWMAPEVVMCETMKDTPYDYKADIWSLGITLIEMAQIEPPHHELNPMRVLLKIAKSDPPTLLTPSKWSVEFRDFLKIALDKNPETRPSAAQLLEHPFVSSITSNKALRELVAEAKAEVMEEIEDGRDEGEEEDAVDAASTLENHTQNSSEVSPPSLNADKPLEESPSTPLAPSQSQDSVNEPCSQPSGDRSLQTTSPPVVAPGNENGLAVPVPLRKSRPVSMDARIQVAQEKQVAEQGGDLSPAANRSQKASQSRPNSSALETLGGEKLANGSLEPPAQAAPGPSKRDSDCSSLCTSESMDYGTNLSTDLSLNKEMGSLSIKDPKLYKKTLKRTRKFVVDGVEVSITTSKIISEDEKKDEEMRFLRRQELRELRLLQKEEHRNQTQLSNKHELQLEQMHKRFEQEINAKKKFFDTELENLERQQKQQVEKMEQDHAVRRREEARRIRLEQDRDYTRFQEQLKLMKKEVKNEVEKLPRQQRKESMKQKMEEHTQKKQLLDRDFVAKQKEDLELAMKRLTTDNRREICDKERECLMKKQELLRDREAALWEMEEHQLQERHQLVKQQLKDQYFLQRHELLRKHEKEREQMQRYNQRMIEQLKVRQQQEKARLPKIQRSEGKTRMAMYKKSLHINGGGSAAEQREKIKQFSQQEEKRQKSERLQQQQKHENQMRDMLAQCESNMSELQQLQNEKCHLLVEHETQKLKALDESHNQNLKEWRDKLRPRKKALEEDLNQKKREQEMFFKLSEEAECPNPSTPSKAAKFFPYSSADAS
QUANTITY_MEASURED: IC50 (µM)
One number for each entry, in µM.

*Q* Test system UniProt O94804; read-out IC50; what value for Cc1cc(Oc2cc(NC(=O)C3CC3)ncn2)ccc1NC(=O)Nc1ccc(Cl)c(C(F)(F)F)c1 [CBT-102] ?
*A* 1.09

###

# TEST_TARGET: MuSK (h) (Homo sapiens)
# Sequence (O15146 24-869): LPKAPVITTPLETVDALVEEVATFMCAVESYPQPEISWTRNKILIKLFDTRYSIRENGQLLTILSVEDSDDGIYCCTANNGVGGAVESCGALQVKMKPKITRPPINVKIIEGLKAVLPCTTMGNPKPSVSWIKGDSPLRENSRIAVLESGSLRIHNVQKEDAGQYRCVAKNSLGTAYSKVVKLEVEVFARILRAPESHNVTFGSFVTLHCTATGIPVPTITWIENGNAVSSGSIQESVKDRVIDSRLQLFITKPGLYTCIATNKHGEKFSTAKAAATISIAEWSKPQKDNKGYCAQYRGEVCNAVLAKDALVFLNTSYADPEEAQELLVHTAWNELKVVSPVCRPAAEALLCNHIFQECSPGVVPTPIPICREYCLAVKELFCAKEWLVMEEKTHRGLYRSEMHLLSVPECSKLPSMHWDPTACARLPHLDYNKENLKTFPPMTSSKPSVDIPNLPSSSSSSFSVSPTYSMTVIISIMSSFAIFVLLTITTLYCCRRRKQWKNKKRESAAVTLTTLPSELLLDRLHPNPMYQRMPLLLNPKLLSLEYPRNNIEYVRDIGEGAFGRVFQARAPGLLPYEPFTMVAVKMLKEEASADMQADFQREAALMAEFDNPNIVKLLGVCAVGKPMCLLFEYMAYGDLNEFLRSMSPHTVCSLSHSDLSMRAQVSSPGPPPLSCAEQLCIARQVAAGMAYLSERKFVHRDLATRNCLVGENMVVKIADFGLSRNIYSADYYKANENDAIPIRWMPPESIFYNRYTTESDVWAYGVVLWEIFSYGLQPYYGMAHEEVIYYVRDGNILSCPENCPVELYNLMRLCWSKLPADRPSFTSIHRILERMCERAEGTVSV
QUANTITY_MEASURED: IC50 (µM)
One number for each entry, in µM.

*Q* Form field: reported IC50 of Cc1cc(Oc2cc(NC(=O)C3CC3)ncn2)ccc1NC(=O)Nc1ccc(Cl)c(C(F)(F)F)c1
*A* 0.278

###

# TEST_TARGET: TNIK (h) (Homo sapiens, UniProt Q9UKE5)
QUANTITY_MEASURED: IC50 (nM)
One number for each entry, in nM.

*Q* Form field: reported IC50 of Cc1cc(Oc2cc(NC(=O)C3CC3)ncn2)ccc1NC(=O)Nc1ccc(Cl)c(C(F)(F)F)c1
*A* 113

###

# TEST_TARGET: EphB4 (h) (Homo sapiens)
# Sequence (P54760 16-987): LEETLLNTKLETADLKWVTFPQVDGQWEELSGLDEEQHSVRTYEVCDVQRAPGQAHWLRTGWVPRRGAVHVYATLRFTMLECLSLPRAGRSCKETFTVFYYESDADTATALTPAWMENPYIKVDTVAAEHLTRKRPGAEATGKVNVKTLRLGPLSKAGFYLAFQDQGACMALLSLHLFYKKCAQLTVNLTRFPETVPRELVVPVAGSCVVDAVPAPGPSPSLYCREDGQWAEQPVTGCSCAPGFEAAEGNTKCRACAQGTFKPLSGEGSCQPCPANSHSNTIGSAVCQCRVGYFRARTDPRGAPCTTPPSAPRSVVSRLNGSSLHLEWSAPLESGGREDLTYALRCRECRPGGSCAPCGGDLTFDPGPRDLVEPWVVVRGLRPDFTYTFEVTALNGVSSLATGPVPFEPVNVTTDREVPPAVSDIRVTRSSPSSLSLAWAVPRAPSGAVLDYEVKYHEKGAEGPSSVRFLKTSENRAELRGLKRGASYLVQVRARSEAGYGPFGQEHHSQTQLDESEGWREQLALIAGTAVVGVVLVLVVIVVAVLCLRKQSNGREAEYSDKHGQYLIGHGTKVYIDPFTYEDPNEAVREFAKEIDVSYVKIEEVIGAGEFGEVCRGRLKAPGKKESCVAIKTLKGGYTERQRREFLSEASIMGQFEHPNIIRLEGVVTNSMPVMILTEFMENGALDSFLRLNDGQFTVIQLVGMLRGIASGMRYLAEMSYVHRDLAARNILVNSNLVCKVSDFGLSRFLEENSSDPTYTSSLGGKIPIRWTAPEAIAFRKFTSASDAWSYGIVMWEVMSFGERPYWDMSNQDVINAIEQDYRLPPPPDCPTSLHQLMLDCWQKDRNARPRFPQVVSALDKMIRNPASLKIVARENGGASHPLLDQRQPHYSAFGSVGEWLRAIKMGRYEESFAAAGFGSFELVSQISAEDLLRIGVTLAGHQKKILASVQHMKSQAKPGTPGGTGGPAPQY
QUANTITY_MEASURED: IC50 (nM)
Give bare numbers, in nM.

*Q* Form field: reported IC50 of Cc1cc(Oc2cc(NC(=O)C3CC3)ncn2)ccc1NC(=O)Nc1ccc(Cl)c(C(F)(F)F)c1 [CBT-102]
*A* 486
